Tested on: MDA-MB-435 melanoma
Assay: NCI-60 one-dose screen, 48 h
Details: 10 µM unless noted
The panel holds about 83,000 compounds, 20% with a hit somewhere; the sample as a whole holds those more often. The source made the active and inactive calls. The calls were made as follows: active = growth percent below 10; inactive = the rest.
Outcome codes: active, inactive

compound=COc1ccccc1C(=O)Nc1cccc(-c2cc(=O)c3c(OC)c(OC)c(OC)cc3o2)c1 qualitative_label=inactive
compound=COc1ccc(Cn2cc3c(c2)-c2oncc2CC3)cc1OC qualitative_label=active
compound="CCOC(=O)C1=C(C(F)(F)F)NC(=S)NC1CN1C(=O)c2ccccc2C1=O (centres undefined)" qualitative_label=inactive
compound=COc1ccc(CN2C(=O)/C(=C\C(=O)c3ccc(OCCN4CCCCC4)cc3)c3ccccc32)cc1 qualitative_label=inactive
compound="CCOC(=O)C1CCCN1C(=O)C1(NC(C)=O)CCCC1 (centres undefined)" qualitative_label=inactive
compound="COc1ccc2cc(C(C)C(=O)Nc3ccc(S(=O)(=O)Nc4cc(C)on4)cc3)ccc2c1 (centres undefined)" qualitative_label=inactive
compound="CCCCCCCCCCN1CC2CCCCC2C1 (centres undefined)" qualitative_label=inactive
compound=CC1=C[C@@H]2c3c(c(O)c(O)c4oc5cc(O)cc(O)c5c(=O)c34)[C@@H](c3cc(O)c(O)c4oc5cc(O)cc(O)c5c(=O)c34)[C@@H]2C(C)(C)C1 qualitative_label=active
compound=Cc1c(C(N)=O)sc2c1c(=O)n(Cc1ccccc1)c1nnc(S(C)(=O)=O)n21 qualitative_label=inactive

* * *

Tested on: OVCAR-3 ovarian
Assay: NCI-60 one-dose screen, 48 h
Conditions: 10 µM unless noted
The panel holds about 83,000 compounds, 20% with a hit somewhere; the sample as a whole holds those more often. The source made the active and inactive calls. The calls were made as follows: active = growth percent below 10; inactive = the rest.
Outcome codes: active, inactive

molecule=COc1cc(-c2nn(-c3ccc(NC(=O)c4cc(Cl)cc(Cl)c4)cc3)cc2-c2ccncc2)ccc1Cl qualitative_label=inactive
molecule=CC(C)(C)OC(=O)N1C/C(=C\c2ccccc2)C(=O)/C(=C/c2ccccc2)C1 qualitative_label=inactive
molecule="O=P(OCCCl)(OCCCl)C(O)c1ccccc1Cl (centres undefined)" qualitative_label=inactive
molecule=O=C(Nc1cccc(Cn2c(=O)[nH]c3ccc(Oc4ncccn4)cc3c2=O)c1)c1cccc(F)c1 qualitative_label=inactive
molecule=COc1cc(-c2nn(-c3ccc(NC(=O)c4ccc(Cl)c(C(F)(F)F)c4)cc3)cc2-c2ccncc2)ccc1Cl qualitative_label=inactive
molecule=CCCC(=O)NNc1[nH]c(-c2cc(OC)c(OC)c(OC)c2)cc1C(=O)OCC qualitative_label=inactive
molecule=CCCCCCCCCC[N+](C)(C)C qualitative_label=active
molecule="CCCCCCCCc1ccc(OCCOCC[N+](C)(C)CC)cc1 (tested in a mixture with another compound)" qualitative_label=inactive
molecule=COc1ccc(Cn2cc3c(c2-c2ccc(OC)cc2)CCc2cnoc2-3)cc1 qualitative_label=active

* * *

Test system: OVCAR-4 ovarian
Assay: NCI-60 one-dose screen, 48 h
Conditions: 10 µM unless noted
Procedure: Growth inhibition of the OVCAR-4 human tumor cell line is measured as a screen for anti-cancer activity. Cells are grown in 96 well plates and exposed to the test compound for 48 hours. Compounds are tested at a single concentration, which is 10^-5 M for most compounds. The reported endpoint is percent growth (GI% or GIPRCNT), where numbers from 0 - 100% represent growth inhibition, and numbers from -100% - 0 represent cell death. For example, a value of 40 represents 60% growth inhibition. […]
This is part of a sample that, as a whole, favours compounds with a hit. Of some 83,000 tested, about 20% had one in any assay. Calls of active or inactive are those of the source. The calls were made as follows: active = growth percent below 10; inactive = the rest.
Outcome codes: 1.0 = active, 0.0 = inactive

compound=CC(=O)NNC(=O)c1sc(NC(C)=O)nc1C qualitative_label=0.0
compound=CCCCCCCCCC[N+](C)(C)C qualitative_label=0.0
compound=COc1ccc(/C=C/C(=O)/C=C/c2cc3ccccc3[nH]c2=O)cc1 qualitative_label=0.0
compound="CC(O)CN(CC(C)O)N(CC(C)O)CC(C)O (stereo not drawn)" qualitative_label=0.0
compound=O=C(/C=C1\C(=O)N(Cc2ccc([N+](=O)[O-])cc2)c2ccccc21)c1ccc(OCCN2CCCC2)cc1 qualitative_label=0.0
compound=CC(C)(CNC1CCCCC1)OC(=O)c1ccccc1 qualitative_label=0.0
compound="CC1(C)CC(=O)C2=C(C1)Oc1nc(N)c(C#N)c(N)c1C2c1ccc(F)cc1 (stereo not drawn)" qualitative_label=0.0
compound=O=C(CCC(=O)N(CCO)CCO)N(CCO)CCO qualitative_label=0.0
compound="CCS(=O)(=O)N[C@@H]1O[C@H](COC(C)=O)C(OC(C)=O)[C@H](OC(C)=O)C1OC(C)=O (stereo partly drawn)" qualitative_label=0.0
compound=CCn1cnc(C[C@H](NC(=O)[C@@H](NC(=O)Nc2cc(C(F)(F)F)cc(C(F)(F)F)c2)C(C)(C)C)C(=O)OC)c1 qualitative_label=1.0
compound=Cc1ccc(OCCn2ccc(=O)n(CCOc3ccc(Cl)cc3C(=O)c3cc(C)cc(C)c3)c2=O)cc1 qualitative_label=0.0
compound="Cc1ccc(S(=O)(=O)N/N=C2\\CC3CCC2C3)cc1 (stereo not drawn)" qualitative_label=0.0
compound=COc1ccc(Cn2cc3c(c2-c2ccc(OC)cc2)CCc2cnoc2-3)cc1 qualitative_label=0.0
compound=O=C(Nc1ccc(-n2cc(-c3ccncc3)c(-c3ccc(Cl)c(O)c3)n2)cc1)c1ccc(Cl)c(C(F)(F)F)c1 qualitative_label=0.0
compound=CC[C@H](Nc1ncnc2nc[nH]c12)c1nc2cccc(NCc3ccc(C(=O)NO)nc3)c2c(=O)n1-c1ccccc1 qualitative_label=0.0
compound="CCC(C)[C@H](NC(=O)Nc1cc(C(F)(F)F)cc(C(F)(F)F)c1)C(=O)N[C@@H](Cc1cn(C)cn1)C(=O)OC (stereo partly drawn)" qualitative_label=1.0
compound=[N-]=[N+]=Nc1ncc(-c2ccc(C(F)(F)F)cc2)c(NC2CCCCCC2)n1 qualitative_label=0.0
compound="Cc1ccc(C(=O)C(Br)C(Br)c2ccccc2)cc1 (stereo not drawn)" qualitative_label=0.0
compound=Nc1ccc(N=Nc2ccccc2)c2cc(S(=O)(=O)O)ccc12 qualitative_label=0.0
compound=COC(=O)[C@H](Cc1cn(C)cn1)NC(=O)[C@H](CC(=O)OCc1ccccc1)NC(=O)Nc1cc(C(F)(F)F)cc(C(F)(F)F)c1 qualitative_label=1.0
compound=CC1=C(C)C[C@]2(C(=O)O[C@H]3CCCC[C@@H]32)[S@](=O)C1 qualitative_label=0.0
compound=CC1=C[C@@H]2c3c(c(O)c(O)c4oc5cc(O)cc(O)c5c(=O)c34)[C@@H](c3cc(O)c(O)c4oc5cc(O)cc(O)c5c(=O)c34)[C@@H]2C(C)(C)C1 qualitative_label=0.0
compound=O=S(=O)(Cc1cccc2c(CS(=O)(=O)c3ccc(Cl)cc3)cccc12)c1ccc(Cl)cc1 qualitative_label=0.0
compound=COc1cc2c(cc1OC)C(Cc1cc(OC)c(OC)cc1[N+](=O)[O-])=NCC2 qualitative_label=0.0
compound="O=C(CCCC(=O)Nc1ccc(Cn2nnc3cc(Cl)c(Cl)cc32)cc1)Nc1ccc(CN2N=NC3C=C(Cl)C(Cl)=CC32)cc1 (stereo not drawn)" qualitative_label=0.0
compound=CC(C)(C)c1cc(C[P+](c2ccc(Cl)cc2)(c2ccc(Cl)cc2)c2ccc(Cl)cc2)cc(C(C)(C)C)c1O qualitative_label=0.0
compound=C/C(=N\Nc1ccc(Cl)cn1)c1ccc2ccccc2n1 qualitative_label=0.0
compound="CCOC(=O)C1CCCN1C(=O)C1(NC(C)=O)CCCC1 (stereo not drawn)" qualitative_label=0.0
compound=COC(=O)[C@H](Cc1cn(C)cn1)NC(=O)[C@@H](NC(=O)Nc1cc(C(F)(F)F)cc(C(F)(F)F)c1)C(C)(C)C qualitative_label=1.0
compound=COc1ccc(Oc2[nH]n(C3=Nc4ccccc4Sc4ccccc43)c(=O)c2C#N)cc1 qualitative_label=0.0
compound="COC(=O)C1CC(=O)N(C(=O)Nc2ccc(Cl)cc2Cl)C1 (stereo not drawn)" qualitative_label=0.0
compound="CCC(C)C1NC(=O)C(CCCCN)NC(=O)C(CCCCN)NC(=O)C(CC(C)C)NC(=O)C(CCCCN)NC(=O)C(C(C)CC)NC(=O)C(C(C)C)NC(=O)C(C(C)CC)NC(=O)C(CCCCN)NC(=O)C(CCCCN)NC(=O)C(C)NC(=O)C(CCCCN)NC(=O)C(CC(C)C)NC1=O (stereo not drawn)" qualitative_label=0.0
compound=Clc1ccc(I)c2ccccc12 qualitative_label=0.0
compound=COC1=CC(c2ccc[nH]2)=N/C1=C\c1[nH]c(C)c(C(=O)CCCCC(=O)NC(C)(C)C)c1C qualitative_label=0.0
compound=Nc1cc2c(cc1Br)[nH]c(=O)c1ccccc12 qualitative_label=0.0
compound=c1ccc(Nc2ncc3c(n2)-c2cccn2CC3)cc1 qualitative_label=0.0
compound=CC(=O)c1ccc2c(c1)c1ccccc1n2C qualitative_label=0.0
compound=Cc1ccc(CC(=O)O)c(C)c1 qualitative_label=0.0
